These data points were gathered from PubChem BioAssay AID2685.

Entries and their cell number change
Experiment: qHTS Assay for Lipid Storage Modulators in Drosophila S3 Cells;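 for cell number change: cells counted by Cell Tracker Red CMTPX staining in the red channel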
Details: BODIPY lipid droplet fluorescence, 18-24 h, cells fed with added oleic acid; measured here: cell count max response
Hit rate of the full screen: of about 320,000 compounds, about 2,100 (0.66%) were called active. Roughly 53% stayed inconclusive and do not appear here. Shown is part of a subset that was picked to be rich in actives.
Express your answer in %, writing the number without its unit.

Cc1ccc2[nH]c(=O)c(CN(CCCN(C)C)C(=S)NCCc3ccccc3)cc2c1	-4.82
CN1CCN(S(=O)(=O)c2ccc(NC(=O)c3ccc(Br)s3)cc2)CC1	-9.91
O=C(Cn1c2ccccc2c2nc3n(c(=O)c21)CCS3)N1CCCC1	-22.8
O=C(CCN1C(=O)/C(=C/c2cccs2)SC1=S)Nc1cccc(C(=O)O)c1	-17.1
O=C(CCCN1C(=O)/C(=C/c2cccs2)SC1=S)NNC(=O)c1ccccc1O	-24.1
CCC1CN(C(=O)N2CCC(C(=O)NCc3ccccc3OC)CC2)c2ccccc2O1 (stereo not given)	16.5

Next:
Data request: What does the record list as cell number change for `Nc1c(-c2ccc(Cl)cc2)cnn1-c1cccc(C(F)(F)F)c1` ?
Data returned: 10.7

====

Assay: qHTS Assay for Lipid Storage Modulators in Drosophila S3 Cells
Conditions: BODIPY lipid droplet fluorescence, 18-24 h, cells fed with added oleic acid; series mostly up to 46.1 µM
Screen size: about 320,000 compounds; about 2,100 (0.66%) were called active. About 53% were inconclusive and are not listed. The call rests on the fitted dose curve; in most records, active means well fitted inhibition curve with a large enough effect in the signal ratio, with a control signal flat (not every such curve was filed as active); inconclusive means small, poorly fitted or top-dose-only effect, or effect the other way, or a change in a side signal; inactive means flat fitted curve, though single readings scatter; the % refers to the signal ratio. The sample as a whole holds a higher share of actives than the screen did.
Outcome (select one): active, inactive

Solved cases (4 shown):
COC(=O)CCn1[nH]c(=O)c2ccccc2c1=O	inactive
O=C(CCn1[nH]c(=O)c2ccccc2c1=O)NCCO	active
CS(=O)(=O)N(CC(=O)N1CCc2ccccc2C1)Cc1ccc(F)cc1	active
Cc1ccc(-c2nnn(CC(=O)N3C(C)CCCC3C)n2)cc1 (stereo not given)	active

As a next step, examine the compound that follows.
Data request: Outcome? Cc1ccc(-c2nnn(CCC(=O)N3CCCCC3C)n2)cc1 (stereo not given)
Data returned: inactive

====

Below, each of the compounds is paired with its reported cell number change value.
Experiment: qHTS Assay for Lipid Storage Modulators in Drosophila S3 Cells;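 for cell number change: cells counted by Cell Tracker Red CMTPX staining in the red channel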
Conditions: BODIPY lipid droplet fluorescence, 18-24 h, cells fed with added oleic acid; measured here: cell count max response
The campaign covered roughly 320,000 compounds. About 2,100 (0.66%) were called active. Not shown: some 53% with an inconclusive outcome. This excerpt belongs to a sample that is enriched for actives.
The response must be a number in % with no trailing unit.

Data request: Param item = `Cc1ccccc1N=C1N=C(N)c2ccccc21` ; retrieve measured cell number change.
Data returned: 4.71

Data request: Look up cell number change for this compound: CC(NC(=O)c1ccncc1)C(c1cccs1)N1CCOCC1 (stereo not given)
Data returned: 1.4

Data request: Query: cell number change; subject: `Cn1c(/N=C/c2c[nH]c3ccccc23)nc2ccccc21`
Data returned: -13.5

====

Assay: qHTS Assay for Lipid Storage Modulators in Drosophila S3 Cells;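 for cell number change: cells counted by Cell Tracker Red CMTPX staining in the red channel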
Conditions: BODIPY lipid droplet fluorescence, 18-24 h, cells fed with added oleic acid; measured here: cell count max response
Out of some 320,000 compounds screened, about 2,100 (0.66%) were called active. Not shown: some 53% with an inconclusive outcome. Many of the other results were omitted from the sample, so actives are more common in it than they were.
Here the recorded cell number change is given for each entry.
Give a bare numeral; the unit % is implied.

Illustrative cases are given below, each with its answer.
Cc1cc(=O)[nH]c(N/N=C/c2ccc(Cl)cc2Cl)n1	3.1
CCOC(=O)C1=C(Nc2ccc(Br)cc2)CC(C)(O)C(C(=O)OCC)C1c1ccccc1 (configuration not stated)	1.29
Cc1ccccc1NS(=O)(=O)c1ccc(C)c(C(=O)N2CCOCC2)c1	1.29
C=Cc1ccc(C(=O)N2CCCC(CCC(=O)N3CCN(c4ccccn4)CC3)C2)cc1 (configuration not stated)	-2.91

Data request: Any idea what its cell number change is? The molecule is `CCn1ncc(-c2csc(N)n2)c1C`
Data returned: 9.82

Data request: Can you share its cell number change? I mean this molecule: `COc1ccc(S(=O)(=O)Nc2ccccc2C(=O)N2CCOCC2)cc1C`
Data returned: -5.26

Data request: May I ask what cell number change has been recorded for `CN(C)S(=O)(=O)N1CCN(S(=O)(=O)N2CCOCC2)CC1` ?
Data returned: 6.09

Data request: cell number change lookup needed for `COCCNC(=O)Cn1nc(-c2ccccc2C)ccc1=O` , thanks.
Data returned: 8.76

Data request: Which cell number change is reported for this molecule? CCOc1cccc2cc(C(=O)N3CC(C)OC(C)C3)c(=O)oc12 (configuration not stated)
Data returned: -8.03

Data request: // cell number change lookup, key: `COc1ccccc1NC(=S)NCc1ccc(Cl)cc1`
Data returned: 8.81

Data request: What value of cell number change has been reported for the following molecule? `O=C(Nc1ccccc1)Nc1n[nH]c2nnc(-c3ccccc3)c(-c3ccccc3)c12`
Data returned: 9.52

Data request: I am curious: what cell number change value has been reported for `Cc1cc(C)c(S(=O)(=O)Nc2ccccc2C(=O)N2CCOCC2)c(C)c1` ?
Data returned: -34.8

====

Test: qHTS Assay for Lipid Storage Modulators in Drosophila S3 Cells
Settings: BODIPY lipid droplet fluorescence, 18-24 h, cells fed with added oleic acid; series mostly up to 46.1 µM
Hit rate of the full screen: of about 320,000 compounds, about 2,100 (0.66%) were called active. About 53% were inconclusive and are not listed. Calls come from the whole dose curve; as a rule, active = well fitted inhibition curve with a large enough effect in the signal ratio, with a control signal flat (not every such curve was filed as active); inconclusive = small, poorly fitted or top-dose-only effect, or effect the other way, or a change in a side signal; inactive = flat fitted curve, though single readings scatter; the % refers to the signal ratio. The entries come from a sample that favours actives as a whole.
Outcomes you can answer with include only these: 1 = active, -1 = inactive

Cc1cc2c(cc1S(=O)(=O)N(C)Cc1ccccc1)n(C)c(=O)c(=O)n2C	-1
CCOC(=O)c1sc2ccc(S(=O)(=O)N3CCOCC3)cc2c1N	-1
CCN(c1ccccc1)S(=O)(=O)c1cc2c(cc1C)n(C)c(=O)c(=O)n2C	1
COc1cc2c(C(=O)N(C)c3ccc(F)cc3)cn(C)c(=O)c2cc1OC	-1
CC(=O)c1ccc(S(=O)(=O)N2CCN(C(=O)c3ccccc3Cc3ccccc3)CC2)cc1	-1
Cn1c(SCc2ccccn2)nc2c1c(=O)[nH]c(=O)n2C	1

Data request: Hi team, can someone confirm the assay call for `O=C(CCOc1ccccc1)N1CCN(S(=O)(=O)c2cccs2)CC1` ?
Data returned: -1

Data request: How did this test come out for `Cc1cc2c(cc1S(=O)(=O)Nc1cccc(C)c1C)n(C)c(=O)c(=O)n2C` ?
Data returned: 1

Data request: What did this assay record as the result for `O=C(Nc1ccc(Cl)c(Cl)c1)Nc1ccon1` ?
Data returned: 1

====

Assay: qHTS Assay for Lipid Storage Modulators in Drosophila S3 Cells
Settings: BODIPY lipid droplet fluorescence, 18-24 h, cells fed with added oleic acid; series mostly up to 46.1 µM
The whole screen tested about 320,000 compounds, of which about 2,100 (0.66%) were called active. Another 53% or so got no clear call; they are omitted. Calls come from the whole dose curve; as a rule, active = well fitted inhibition curve with a large enough effect in the signal ratio, with a control signal flat (not every such curve was filed as active); inconclusive = small, poorly fitted or top-dose-only effect, or effect the other way, or a change in a side signal; inactive = flat fitted curve, though single readings scatter; the % refers to the signal ratio. What follows is part of a selection rich in actives, with near analogues and random picks from the rest.
Pick from active, inactive when you respond.

# count of solved cases: 3
O=C(COC(=O)c1ccc(S(=O)(=O)NCc2ccco2)cc1)NC1CCCCC1	inactive
CCOc1ccc(CCNC(=O)C2CCN(c3nn4c(=O)cc(C)nc4s3)CC2)cc1OCC	active
COc1ccc(NC(=O)C2CCCN2c2nn3c(=O)cc(C)nc3s2)cc1 (stereo unspecified)	inactive

Data request: Entry `CCSc1nc(=S)n(CC)c(C)c1C(C)=O` : call = ?
Data returned: inactive

Data request: Returns: the outcome recorded for `COC(=O)c1ccccc1NC(=O)C1=CC(c2cccs2)=NS(=O)(=O)N1C` in this assay.
Data returned: inactive

Data request: Please indicate how the test categorized `Cc1cc(=O)n2nc(N3CCC(C(=O)N4CCN(c5ccccc5)CC4)CC3)sc2n1` .
Data returned: inactive

Data request: Name the outcome recorded for `CCCCOc1ccc(NS(=O)(=O)c2ccc(-n3cnnn3)cc2)cc1` in the assay.
Data returned: inactive

====

Experiment: qHTS Assay for Lipid Storage Modulators in Drosophila S3 Cells
Details: BODIPY lipid droplet fluorescence, 18-24 h, cells fed with added oleic acid; series mostly up to 46.1 µM
Among all 320,000 compounds or so, about 2,100 (0.66%) were called active. Another 53% or so got no clear call; they are omitted. The call rests on the fitted dose curve; in most records, active means well fitted inhibition curve with a large enough effect in the signal ratio, with a control signal flat (not every such curve was filed as active); inconclusive means small, poorly fitted or top-dose-only effect, or effect the other way, or a change in a side signal; inactive means flat fitted curve, though single readings scatter; the % refers to the signal ratio. The entries come from a sample that favours actives as a whole.
Response enum: class 1 (active), class 0 (inactive)

CC1CCCCC1NC(=O)COC(=O)Cc1ccc(Cl)cc1 (configuration not stated)	class 0
COc1ccc(C(C)=O)cc1CN1C(=O)NC2(CCCCCCC2)C1=O	class 0
CCOc1ccc(C(C)=O)cc1CN1C(=O)NC2(CCCCCC2)C1=O	class 1

Data request: Each compound tested received a call. Report the one for `Cc1onc(-c2ccccc2Cl)c1C(=O)N1CCN(C=O)CC1` .
Data returned: class 0

Data request: Hi, sorry to bother you, what did the test record for `Cc1ccc(-n2c(C)nnc2SCC(=O)N2CCc3ccccc3C2)cc1` ?
Data returned: class 0
